All values here come from a melting point compilation (Tetko et al.; mined from patent text by program, amines drawn as free bases though some values may be those of a salt).

PROPERTY_LABEL: melting point

COMPOUND: CCC(=O)CN1C(=O)C2(COc3cc4c(cc32)OCCO4)c2ccccc21 (stereo not drawn)
RESULT: 182 to 183 °C
--
COMPOUND: COc1ccc(S(=O)(=O)C2(CCCC#Cc3ccc(Cl)cc3)SC(=O)N(C)C2=O)cc1 (stereo not drawn)
RESULT: 113 to 115 °C
--
COMPOUND: O=C1NC(C(=O)NCCO[N+](=O)[O-])C(Cc2ccccc2)S1 (stereo not drawn)
RESULT: 123 to 124 °C

====

Residues, ends and D or L forms follow the SMILES beside them. *: point of attachment. Cbz = O=C(OCc1ccccc1)*; Boc = CC(C)(C)OC(=O)*
Reported melting point values follow for various molecules

MOLECULE: CC(C)CC(NC(=O)OCc1ccccc1)C(=O)NC(CCCCNC(=O)OC(C)(C)C)C(=O)O (stereo not drawn) (Cbz-Leu-Lys(Boc)-OH; configuration not given here)
melting point: 125 to 128 °C
--
MOLECULE: CCOC(=O)c1cn(C2CC2)c2c(F)c(F)c(F)c(F)c2c1=O
melting point: 170 to 171 °C
--
MOLECULE: CC(C)(C#N)c1cc(Cn2cncn2)cc(-c2ccc(OS(N)(=O)=O)cc2)c1
melting point: 74 to 76 °C
--
MOLECULE: CCCCCCCCCC1C=CC(Oc2ccc(C(=O)O)o2)=C2N=C3CCCCC3=C21 (stereo not drawn)
melting point: 130 to 132 °C
--
MOLECULE: CCCc1nc2c(N)nc3ccccc3c2n1CCCCCC(=O)OCC
melting point: 112 to 113 °C
--
MOLECULE: CCNC(=O)c1cc(N)c([N+](=O)[O-])cc1OC
melting point: 235 to 239 °C
--
MOLECULE: COCOc1ccc(-c2ncc3ncc(NC(=O)c4cccnc4)cc3n2)cc1
melting point: 232 °C
--
MOLECULE: CC1(C)CCCN(C2c3cc4nonc4cc3OC(C)(C)C2O)C1=O (stereo not drawn)
melting point: 114 to 115 °C

====

COMPOUND: Cc1ccc(Cn2c(=O)c3c(Cl)cc(Cl)cc3n(Cc3ccccc3)c2=O)cc1C
melting point: 126 to 132 °C

COMPOUND: CC(C)c1cccc(C(C)C)c1NC(=O)CN1CCN(CCSc2nc3ncccc3o2)CC1
melting point: 153 to 154 °C

COMPOUND: CC(C)(C)SC1CC(=O)N1CC(=O)OCc1ccc([N+](=O)[O-])cc1 (stereo not given)
melting point: 82.5 to 84 °C

COMPOUND: COc1cccc(-c2cc(Cl)cc3c2OC(CN)C3)c1OC (stereo not given)
melting point: 120 to 122 °C

COMPOUND: Cc1cc(C2=NOC(c3cc(Cl)cc(Cl)c3)(C(F)(F)F)C2)ccc1C(=O)Nc1ccc(Cl)cn1 (stereo not given)
melting point: 129 to 132 °C

COMPOUND: COc1ccc(OC)c2c1C(=O)c1c-2[nH]c2ccc(O)cc12
melting point: > 260 °C

COMPOUND: CCCC(=O)NCc1ccc(C(=O)O)cc1
melting point: 186 to 188 °C

COMPOUND: OC(=S)CCc1ccc(F)cc1
melting point: 68 to 69 °C

COMPOUND: O=C(O)c1nc(-c2ccccc2Oc2ccc(F)cc2O)no1
melting point: 127 to 128 °C

COMPOUND: CCc1cc2c(s1)-n1nc(C(N)=O)nc1C(OC)N=C2c1ccccc1Cl (stereo not given)
melting point: 200 to 201 °C

COMPOUND: CS(=O)(=O)c1ccc(Br)cc1Br
melting point: 124 to 126 °C

COMPOUND: O=S(=O)(Cc1ccccc1)On1nnc2ccc(Cl)cc21
melting point: 126 to 128 °C

COMPOUND: Oc1ccc(-c2cnc3cnc(-c4ccccc4O)nc3c2)cc1
melting point: > 268 °C

COMPOUND: CSc1c(S(=O)(=O)NC(C)(C)C)ccn1C
melting point: 116 to 119 °C

COMPOUND: N#CCSc1cc(F)cc(F)c1N
melting point: 66 to 67 °C

====

PROPERTY_LABEL: melting point

COMPOUND: Cc1nc(N(C)C)sc1C(=O)c1ccc(N)c(N)c1
RESULT: 174 to 178 °C
--
COMPOUND: CC(NC(=O)c1ccc(I)cc1)C(O)c1ccccc1 (configuration not stated)
RESULT: 209 to 210 °C
--
COMPOUND: CC1(C)Oc2cc3nonc3cc2C(N2CCC(O[N+](=O)[O-])CC2=O)C1O (configuration not stated)
RESULT: 186 to 189 °C
--
COMPOUND: O=C(Nc1cccnc1)N1CCN(c2nccc(-c3ccccc3F)n2)CC1
RESULT: 200 to 201 °C
--
COMPOUND: CC[C@H]1COC(=O)N1c1nc(-c2ccc(C#N)cc2)c(Cl)s1
RESULT: 157 to 159 °C
--
COMPOUND: O=C(Nc1n[nH]c(=S)s1)NC(Cc1ccccc1)C(=O)NCc1ccc(C(F)(F)F)cc1 (configuration not stated)
RESULT: 217 to 218 °C
--
COMPOUND: O=[N+]([O-])C=C(NCc1ccc(Cl)nc1)NCc1ccc(Cl)nc1
RESULT: 238 to 240 °C
--
COMPOUND: NCC1CC1CCC(=O)Nc1ccc(NC(=O)CCC2CC2CN)c2c1C(=O)c1ccccc1C2=O (configuration not stated)
RESULT: 208 to 210 °C
--
COMPOUND: CC(C)(O)c1ccc(-c2ccc3nnn(Cc4ccc5ncccc5c4)c3n2)cc1F
RESULT: 85 to 89 °C
--
COMPOUND: O=C1OC(CCc2ccccc2)(c2ccccc2)CC(O)=C1CCc1ccccc1 (configuration not stated)
RESULT: 68 to 70 °C
--
COMPOUND: CC(C)(C)OC(=O)NC1CCCCCC=CC2CC2(C(=O)NS(=O)(=O)C2CC2)NC(=O)C2CC(OC(=O)c3cccnc3)CN2C1=O (configuration not stated)
RESULT: 157 to 159 °C
--
COMPOUND: CCc1nn(Cc2nccn2C)c2c(=O)[nH]c(-c3cc(S(C)(=O)=O)ccc3OCC(C)C)nc12
RESULT: 253 to 254 °C

====

Reported melting point values are given for each entry in this list.

COMPOUND: CNC(=O)Nc1cc(NC(=O)/C=C/c2ccc(C(C)(C)C)cc2)ccc1Cl
melting point: 120 to 122 °C

COMPOUND: Cc1c(-c2cnccn2)c(N2CC[C@H](N(C)C)C2)c2oc(C3CC3)nc2c1C#N
melting point: 157 to 159 °C

COMPOUND: Nc1c(F)cncc1F
melting point: 99 to 101 °C

COMPOUND: NC(=O)Nc1cccc2c1nc(/C=C/c1ccccc1)n2-c1ccccn1
melting point: > 230 °C

COMPOUND: Cc1ccc(-c2cc(-c3ccc(F)cc3)c(C(=O)NCc3ccc(C(=O)NO)cc3)[nH]2)cc1
melting point: 213 to 215 °C

COMPOUND: COC(=O)c1ccc(C=O)c2ncccc12
melting point: 128 °C

COMPOUND: Cc1cc(-c2ccccc2)nnc1NN
melting point: 162 °C

COMPOUND: COc1ccc(CC(=O)O)cc1OC1CCCC1
melting point: 79 to 80 °C

COMPOUND: COc1ccc(N2CCN(Cc3n[nH]c4c(Cl)cccc34)CC2)cc1
melting point: 190 to 191 °C

COMPOUND: COc1ccc(S(=O)(=O)F)nn1
melting point: 87 to 88 °C

COMPOUND: CCOC(=O)C(C(=O)OCC)N(Cc1ccc(OC)cc1OC)C(=O)CCl
melting point: 83 to 84 °C

COMPOUND: Nc1nc2c(OCCO)cccc2o1
melting point: 124 to 126 °C

COMPOUND: COC(=O)c1ccnc(NC(=O)C(C)CSC(C)=O)c1 (stereo unspecified)
melting point: 105 to 106 °C

COMPOUND: CC(C)(C)OC(=O)NCCN(CC(=O)O)C(=O)OCc1ccccc1
melting point: 64.5 to 85 °C

COMPOUND: CN1CCN(c2ccccc2C(O)C2SCCNC2=O)CC1 (stereo unspecified)
melting point: 137 to 139 °C

COMPOUND: O=c1ccccn1[C@@H]1C[C@H](O)[C@@H](O)[C@H]1O (racemic)
melting point: 138 to 140 °C

====

The entries below are paired with their reported melting point.

MOLECULE: CCCC1=C(C#N)C(c2cccc3ccccc23)c2c[nH]nc2N1 (stereo not drawn)
melting point: 263 °C
//
MOLECULE: CC(=O)OCC=C(C)C=CC=C(C)C=O
melting point: 71 to 72 °C
//
MOLECULE: CC(C)=CC(=O)Nc1ccc2ncnc(Nc3cccc(Br)c3)c2c1
melting point: 300 to 301 °C

====

MOLECULE: O=C1C=CC(O)(c2cc3ccccc3n2S(=O)(=O)c2ccccc2)c2ccccc21 (stereo not drawn)
melting point: 175 to 177 °C

MOLECULE: O=C1CCC(c2ccc(F)cc2)c2ccccc2N1 (stereo not drawn)
melting point: 209 to 212 °C

MOLECULE: CC(C)CNC(=O)c1ccc(C2CC2c2ccc(Cl)cc2)cc1 (stereo not drawn)
melting point: 110 °C

MOLECULE: CCCOc1ccccc1-c1nc2nc(CC)ncc2c(=O)[nH]1
melting point: 118 to 119 °C

MOLECULE: COc1cc(C(O)C#N)ccc1O (stereo not drawn)
melting point: 80 to 81 °C

MOLECULE: CC(=O)C(Cc1c(CCN(C)C)[nH]c2ccccc12)(c1ccccc1)c1ccccc1
melting point: 135 to 137 °C

MOLECULE: CCC(=CC(CSc1nnnn1-c1ccccc1)=NO)C(C)[N+](=O)[O-] (stereo not drawn)
melting point: 66 to 69 °C

MOLECULE: O=S(=O)(Cl)c1ccc(-c2ccc3c(c2)OCO3)s1
melting point: 117 to 119 °C

MOLECULE: CN1Cc2cccc(SCc3ccccc3)c2S1(=O)=O
melting point: 119 to 122 °C

MOLECULE: COc1nc(NC(=O)NS(=O)(=O)c2ccccc2OC(F)F)nc(C2CC2)n1
melting point: 121 to 124 °C

MOLECULE: CCOc1nc2cccc(C(=O)OC)c2n1Cc1ccc(-c2ccccc2C#N)cc1
melting point: 168 to 170 °C

MOLECULE: Nc1nc(N)nc(-c2cncc(Br)c2)n1
melting point: > 260 °C

MOLECULE: COc1ccccc1NC(C)C(=O)O (stereo not drawn)
melting point: 205 to 208 °C
